System: hiPSC-derived neurons co-cultured with human primary astrocytes in 2D
measurementDescription: Ca2+ transient oscillation assay (FDSS), 2D co-culture
Format: cell-based
conditionDescription: Homo sapiens, 1 h; 10 µM; 60 min; read-out: Peak amplitude - 2D Mean
metric: activation at 10 µM

- compound: "Cc1ccc(Nc2nccc(N(C)c3ccc4c(C)n(C)nc4c3)n2)cc1S(N)(=O)=O"
  valueReported: "9.5%"
- compound: "Nc1ccncc1"
  valueReported: "8.5%"
- compound: "CCN(CC)CCCC(C)Nc1c2ccc(Cl)cc2nc2ccc(OC)cc12 (stereo not drawn)"
  valueReported: "-78%"
- compound: "CC(=O)Nc1ccc(O)cc1"
  valueReported: "-0.3%"
- compound: "CC(NC(C)(C)C)C(=O)c1cccc(Cl)c1 (stereo not drawn)"
  valueReported: "4.7%"
- compound: "CCn1cc(C(=O)O)c(=O)c2cc(F)c(N3CCNCC3)nc21"
  valueReported: "11.3%"
- compound: "CNCCCC12CCC(c3ccccc31)c1ccccc12"
  valueReported: "-100%"
- compound: "OC(c1cc(C(F)(F)F)nc2c(C(F)(F)F)cccc12)C1CCCCN1 (stereo not drawn)"
  valueReported: "-100%"
- compound: "CC[C@@H]1C(=O)OC[C@@H]1Cc1cncn1C"
  valueReported: "3.8%"

---

System: hiPSC-derived neurons co-cultured with human primary astrocytes in 2D
measurementDescription: Ca2+ transient oscillation assay (FDSS), 2D co-culture
Format: cell-based
conditionDescription: Homo sapiens, 1 h; 3 µM; 60 min; read-out: Peak Number—2D Mean
Description: In this study, we used cryopreserved excitatory neurons that were differentiated from human induced pluripotent stem cells (hiPSCs; Cat #: EX-SeV-CW50065) (Elixirgen Scientific, Inc., Baltimore, MD, USA). […] Prior to the fluorescence measurements, all wells to be measured were treated with 0.04% dimethyl sulfoxide (DMSO) to stabilize the oscillation signal. […] The effects of the test compound were recorded again starting 60 min after the administration of compounds, for 20 min. […]
Examples of molecules with documented activation at 3 µM follow.

- chemicalSmiles: "C[C@]12N[C@H](Cc3ccccc31)c1ccccc12"
  activation at 3 µM / %: -96.3
- chemicalSmiles: "NCCCC(=O)O"
  activation at 3 µM / %: -36.5
- chemicalSmiles: "Clc1ccc2c(c1)C(N1CCNCC1)=Nc1ccccc1O2"
  activation at 3 µM / %: -35.3
- chemicalSmiles: "CC1(C)S[C@@H]2[C@H](NC(=O)[C@H](N)c3ccc(O)cc3)C(=O)N2[C@H]1C(=O)O"
  activation at 3 µM / %: 16.2
- chemicalSmiles: "CN(C)CCCN1c2ccccc2Sc2ccc(Cl)cc21"
  activation at 3 µM / %: -100

---

System: hiPSC-derived neurons co-cultured with human primary astrocytes in 3D
measurementDescription: Ca2+ transient oscillation assay (FDSS), 3D spheroids
Type: cell-based
conditionDescription: 3.7 µM; 60 min

- compound: "NCCc1c[nH]c2ccc(O)cc12"
  unitTag: "% change from baseline"
  Peak amplitude - 3D Mean: "−4.3"
- compound: "NS(=O)(=O)c1cc2c(cc1Cl)NC(C1CC3C=CC1C3)NS2(=O)=O (centres unmarked) [Cyclothiazide]"
  unitTag: "% change from baseline"
  Peak amplitude - 3D Mean: 126.0
- compound: "NC(=O)N1c2ccccc2C=Cc2ccccc21 [Carbamazepine]"
  unitTag: "% change from baseline"
  Peak amplitude - 3D Mean: 114.1
- compound: "CC(=O)Oc1ccccc1C(=O)O"
  unitTag: "% change from baseline"
  Peak amplitude - 3D Mean: 129.1
- compound: "O=C1NC(=O)C(c2ccccc2)(c2ccccc2)N1"
  unitTag: "% change from baseline"
  Peak amplitude - 3D Mean: 111.5
